# MEASUREMENT_PROTOCOL: modulators of CIT2-GFP expression in yeast, primary screen, S. cerevisiae, GFP fusion, multiplex flow cytometry (AID 1870)
# CONDITION_PARAMETERS: 3 h, at 10 µM, stronger effect = higher value
REPORTED_ENDPOINT: percent response of DMSO control (%)

compound=C[C@]12CCC(=O)C=C1CC[C@@H]1[C@@H]2CC[C@]2(C)C(=O)CC[C@@H]12 reported_endpoint="percent response of DMSO control" value_measured=80.3
compound=C#C[C@]1(O)CC[C@H]2[C@@H]3CCC4=CC(=O)CC[C@]4(C)[C@H]3CC[C@@]21C reported_endpoint="percent response of DMSO control" value_measured=106
compound="CCOC(=O)C(C)Oc1cc(C)cc2oc(=O)c3c(c12)CCCC3 (stereo not given)" reported_endpoint="percent response of DMSO control" value_measured=104
compound="CC(C)C(=O)Nc1ccc(S(=O)(=O)N2CC3CC(C2)c2cccc(=O)n2C3)cc1 (stereo not given)" reported_endpoint="percent response of DMSO control" value_measured=104
compound=O=C1CN=C(c2ccccc2F)c2cc(Cl)ccc2N1 reported_endpoint="percent response of DMSO control" value_measured=95.2
